Assay: Partition coefficient (logP)
Type: physicochemical
Conditions: octanol/water
QUANTITY_KIND: logP
Quick one: just the number, no unit, thanks!

Which logP value belongs to C=C1C[C@H]([C@H](O)CCC)OC1=O ?
1.59

Which logP value belongs to C=C1C[C@](C)(CO)OC1=O ?
0.44

Which logP value belongs to C=C1C[C@H]([C@@H](C)O)OC1=O ?
0.55

Which logP value belongs to C=C1C[C@H]([C@H](O)c2ccccc2)OC1=O ?
1.8

----------
Tested on: HL-60
Experiment: Compound was evaluated for in vitro cytotoxic activity against human HL-60 leukemia cell line
Assay type: functional, cell-based
Details: hl-60
QUANTITY_KIND: pIC50
Expect pIC50 as a plain number equal to -log10 of the molar concentration.

Which pIC50 value belongs to CARBOPLATIN ?
5.54
